Biological target: VLA-4 (Homo sapiens, UniProt P05556+P13612)
Sequence (P13612 34-1032): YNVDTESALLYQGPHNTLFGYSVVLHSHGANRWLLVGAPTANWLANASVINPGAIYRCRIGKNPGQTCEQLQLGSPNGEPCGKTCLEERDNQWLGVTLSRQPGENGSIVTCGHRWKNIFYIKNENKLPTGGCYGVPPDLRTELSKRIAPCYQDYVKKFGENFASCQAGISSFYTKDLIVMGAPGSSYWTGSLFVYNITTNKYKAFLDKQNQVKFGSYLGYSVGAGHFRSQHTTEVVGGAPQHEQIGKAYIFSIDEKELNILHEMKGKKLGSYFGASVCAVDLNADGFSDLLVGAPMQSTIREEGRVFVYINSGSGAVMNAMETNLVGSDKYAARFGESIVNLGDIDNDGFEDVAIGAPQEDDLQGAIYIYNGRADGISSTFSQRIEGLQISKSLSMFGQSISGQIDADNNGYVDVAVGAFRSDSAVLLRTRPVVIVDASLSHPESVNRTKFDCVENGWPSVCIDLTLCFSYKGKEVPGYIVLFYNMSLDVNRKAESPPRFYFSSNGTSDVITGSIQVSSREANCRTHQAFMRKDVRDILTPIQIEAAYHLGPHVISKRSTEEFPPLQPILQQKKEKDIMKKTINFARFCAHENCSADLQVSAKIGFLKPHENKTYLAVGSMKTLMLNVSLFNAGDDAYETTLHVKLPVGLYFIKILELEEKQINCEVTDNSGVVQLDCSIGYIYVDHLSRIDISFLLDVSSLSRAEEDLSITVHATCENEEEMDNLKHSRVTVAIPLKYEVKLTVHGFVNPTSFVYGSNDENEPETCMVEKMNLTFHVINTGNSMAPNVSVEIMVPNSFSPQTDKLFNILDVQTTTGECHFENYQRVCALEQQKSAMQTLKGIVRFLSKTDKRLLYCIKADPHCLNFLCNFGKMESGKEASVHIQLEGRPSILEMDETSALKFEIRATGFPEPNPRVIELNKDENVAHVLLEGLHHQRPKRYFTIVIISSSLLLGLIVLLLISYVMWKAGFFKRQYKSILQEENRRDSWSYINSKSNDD
Sequence (P05556 21-798): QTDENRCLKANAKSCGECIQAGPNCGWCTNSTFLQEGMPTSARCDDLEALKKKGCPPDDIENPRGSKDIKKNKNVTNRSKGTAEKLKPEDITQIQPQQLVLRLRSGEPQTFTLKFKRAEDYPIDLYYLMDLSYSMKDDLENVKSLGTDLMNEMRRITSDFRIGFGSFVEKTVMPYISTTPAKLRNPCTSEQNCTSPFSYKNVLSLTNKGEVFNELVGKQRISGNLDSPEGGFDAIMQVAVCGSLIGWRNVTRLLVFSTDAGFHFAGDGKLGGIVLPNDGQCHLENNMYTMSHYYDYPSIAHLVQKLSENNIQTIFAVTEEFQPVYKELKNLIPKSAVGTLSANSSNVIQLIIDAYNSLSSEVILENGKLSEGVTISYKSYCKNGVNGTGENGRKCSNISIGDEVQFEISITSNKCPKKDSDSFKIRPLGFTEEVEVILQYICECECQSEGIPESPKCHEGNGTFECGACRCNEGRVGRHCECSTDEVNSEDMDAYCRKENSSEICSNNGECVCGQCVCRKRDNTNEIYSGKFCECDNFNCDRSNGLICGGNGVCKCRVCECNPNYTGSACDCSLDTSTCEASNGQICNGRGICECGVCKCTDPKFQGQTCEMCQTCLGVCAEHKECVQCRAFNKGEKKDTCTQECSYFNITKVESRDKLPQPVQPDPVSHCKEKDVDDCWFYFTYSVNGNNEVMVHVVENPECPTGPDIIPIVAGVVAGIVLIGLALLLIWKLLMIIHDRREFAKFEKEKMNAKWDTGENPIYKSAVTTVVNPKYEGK
Assay: In vitro binding inhibition of 51Cr-labeled Jurkat cells to solid phase-bound CS-1 compound (SEQ ID NO:1)
Assay type: cell-based
Set-up: inflammatory cells that contain the VLA-4 receptor [Jurkat cells; host or cells: Jurkat (human T lymphoblastic line)
Conditions: binding inhibition potency relative to standard compound of SEQ ID NO:3 = 1 (normalized IC50); about one-tenth or less assigned zero
Entry flag: Yes if Relative Potency reaches 2; No if it does not.

As a guide, the following entries are already answered.
COMPOUND: CC(C)C[C@H](NC(=O)Cc1ccccc1)C(=O)NC(C(=O)N[C@@H](Cc1ccccc1)C(=O)N1CCCCC1)C(C(=O)O)C(=O)O (stereo partly drawn)
LABEL_CLASS: Yes
--
COMPOUND: CC(C)C[C@H](NC(=O)Cc1ccccc1)C(=O)NC(CC(=O)O)(CC(=O)O)C(=O)N[C@@H](Cc1ccccc1)C(=O)N1CCCCC1
LABEL_CLASS: No
--
COMPOUND: CC(C)C[C@H](NC(=O)Cc1ccccc1)C(=O)N[C@@H](CS(N)(=O)=O)C(=O)N[C@@H](Cc1ccccc1)C(=O)N1CCCCC1
LABEL_CLASS: No

Form field: Relative Potency at least 2? Entry: Cc1ccc(S(=O)(=O)N2CCN(C(=O)[C@H](Cc3ccccc3)NC(=O)[C@H](CC(=O)O)NC(=O)[C@H](CC(C)C)NC(=O)Cc3ccccc3)CC2)cc1
Yes

Form field: Relative Potency at least 2? Entry: CC(C)C[C@H](NC(=O)Cc1ccccc1)C(=O)N[C@@H](CC(=O)O)C(=O)N[C@@H](Cc1ccccc1)C(=O)N1CCC(O)CC1
Yes

Form field: Relative Potency at least 2? Entry: CC(C)C[C@H](NC(=O)Cc1ccccc1)C(=O)N[C@@H](CC(=O)O)C(=O)N[C@@H](Cc1ccccc1)C(=O)N1C[C@@H](O)[C@@H](O)C1
Yes

Source listed as patent US5770573A.
